Recorded pIC50, one value per entry.
Biological target: KIT (Homo sapiens)
Sequence (P10721 26-976): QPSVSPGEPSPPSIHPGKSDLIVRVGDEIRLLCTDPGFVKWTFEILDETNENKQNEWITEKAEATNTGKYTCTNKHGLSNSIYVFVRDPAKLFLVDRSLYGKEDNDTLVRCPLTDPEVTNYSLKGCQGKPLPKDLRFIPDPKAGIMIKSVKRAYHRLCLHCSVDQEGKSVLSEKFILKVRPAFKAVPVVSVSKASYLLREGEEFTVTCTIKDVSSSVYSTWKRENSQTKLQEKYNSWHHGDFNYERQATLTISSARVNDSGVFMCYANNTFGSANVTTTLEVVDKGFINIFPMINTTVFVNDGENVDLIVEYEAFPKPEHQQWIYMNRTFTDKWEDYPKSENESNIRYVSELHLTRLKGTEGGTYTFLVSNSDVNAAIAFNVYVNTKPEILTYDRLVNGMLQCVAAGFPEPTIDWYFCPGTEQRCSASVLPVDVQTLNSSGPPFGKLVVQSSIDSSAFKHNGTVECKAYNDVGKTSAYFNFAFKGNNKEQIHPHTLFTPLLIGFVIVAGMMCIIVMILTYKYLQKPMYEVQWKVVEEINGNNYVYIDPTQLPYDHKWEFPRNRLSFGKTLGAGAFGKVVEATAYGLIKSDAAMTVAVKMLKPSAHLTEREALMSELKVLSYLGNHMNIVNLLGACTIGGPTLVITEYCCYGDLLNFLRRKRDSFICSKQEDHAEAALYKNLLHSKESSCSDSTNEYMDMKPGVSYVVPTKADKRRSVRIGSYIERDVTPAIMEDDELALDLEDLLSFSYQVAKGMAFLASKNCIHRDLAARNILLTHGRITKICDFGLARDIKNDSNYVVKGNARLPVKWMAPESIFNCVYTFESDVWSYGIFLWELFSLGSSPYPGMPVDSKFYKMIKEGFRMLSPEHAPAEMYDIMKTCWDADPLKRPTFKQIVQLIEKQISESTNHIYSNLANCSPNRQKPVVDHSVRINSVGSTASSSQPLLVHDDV
Assay: Caliper mobility shift kinase inhibition assay, KIT
Details: recombinant kinase; enzyme 0.9 nM, ATP 400 μM, incubation 17 hr
pIC50: −log10 of the molar value.

{"compound": "Cc1c(C(=O)NCCNC(=O)[C@H](C)N(C)C(=O)/C=C/CN(C)C)c[nH]c1/C=C1\\C(=O)Nc2ccc(F)cc21 [Compound 26]", "pIC50": "> 8.00"}

-- ask If you can, please state the reported pIC50 value of CC#CC(=O)N(C)[C@@H](C)C(=O)NCCNc1cc(Nc2ncc(-c3ccncc3)s2)nc(C)n1 [Compound 18] .
-- reply > 8.00

-- ask Next record, please: Cc1cc(Nc2cc(NCCNC(=O)[C@@H]3CCCN3C(=O)/C=C/CN(C)C)nc(Nc3ccc(CC#N)cc3)n2)n[nH]1 [Compound 3]
-- reply > 8.00

-- ask Subsequent entry: CCC(=O)N(C)[C@@H](C)C(=O)NCCNc1cc(Nc2ncc(-c3ccccc3)s2)nc(C)n1 [Compound 10]
-- reply 7.00 to 8.00
